Quick list: koff per entry.
target: T1, cynomolgus soluble urokinase plasminogen activator receptor (suPAR) (cynomolgus, UniProt Q9GK78 23-303, limits assumed); test: off-rate (kdis) screen of scFv clones, biosensor (Octet)
T1 construct: Target antigen of the off-rate screen; also called cynomolgus uPAR; cynomolgus suPAR
T1 sequence (Q9GK78 23-303 limits assumed): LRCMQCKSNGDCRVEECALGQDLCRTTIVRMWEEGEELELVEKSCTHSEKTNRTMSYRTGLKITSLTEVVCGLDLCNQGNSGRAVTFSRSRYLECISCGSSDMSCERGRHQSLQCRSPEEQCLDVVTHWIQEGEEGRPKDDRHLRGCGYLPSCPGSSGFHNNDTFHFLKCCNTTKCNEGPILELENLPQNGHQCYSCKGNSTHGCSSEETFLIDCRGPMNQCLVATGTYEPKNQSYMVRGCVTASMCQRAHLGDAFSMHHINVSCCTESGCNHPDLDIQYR
Kindly answer with a numeric value in s⁻¹, unit omitted.

{"Binder": "suPAR_DB01_D10 (scFv, V domains shown, screened as scFv) VH: QVQLVQSGAEVKKPGASVKVSCKASGYTFTGYYMHWVRQAPGQGLEWMGWIDHENGSTSYDQKFQGRVTMTRDTSTSTVYMELSSLRSEDTAVYYCARGYDVDWFVYWGQGTLVTVSS VL: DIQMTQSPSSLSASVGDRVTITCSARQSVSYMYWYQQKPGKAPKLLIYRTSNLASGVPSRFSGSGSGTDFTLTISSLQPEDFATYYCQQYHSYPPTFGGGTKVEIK", "koff / s⁻¹": 0.000148}

Switching to the query record.
Fill blank: measured koff of the binder suPAR_DB01_B01 (scFv, V domains shown, screened as scFv) VH: QVQLVQSGAEVKKPGASVKVSCKASGYTFTDYYMHWVRQAPGQGLEWMGWIDHENGNTIYDQKFQGRVTMTRDTSTSTVYMELSSLRSEDTAVYYCARGYDVDWFVYWGQGTLVTVSS VL: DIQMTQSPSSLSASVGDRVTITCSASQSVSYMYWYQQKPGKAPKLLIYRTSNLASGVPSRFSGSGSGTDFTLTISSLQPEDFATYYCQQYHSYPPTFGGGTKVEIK is ____.
4.88e-07
